Each entry below lists one item and its recorded pKd value.
# system: T1, human recombinant CD117 (c-Kit) from Sino Biological (Catalog No. 11996-H08H) (human, UniProt P10721 26-524)
# T1 construct: also called soluble antigen
# T1 sequence (P10721 26-524 limits assumed): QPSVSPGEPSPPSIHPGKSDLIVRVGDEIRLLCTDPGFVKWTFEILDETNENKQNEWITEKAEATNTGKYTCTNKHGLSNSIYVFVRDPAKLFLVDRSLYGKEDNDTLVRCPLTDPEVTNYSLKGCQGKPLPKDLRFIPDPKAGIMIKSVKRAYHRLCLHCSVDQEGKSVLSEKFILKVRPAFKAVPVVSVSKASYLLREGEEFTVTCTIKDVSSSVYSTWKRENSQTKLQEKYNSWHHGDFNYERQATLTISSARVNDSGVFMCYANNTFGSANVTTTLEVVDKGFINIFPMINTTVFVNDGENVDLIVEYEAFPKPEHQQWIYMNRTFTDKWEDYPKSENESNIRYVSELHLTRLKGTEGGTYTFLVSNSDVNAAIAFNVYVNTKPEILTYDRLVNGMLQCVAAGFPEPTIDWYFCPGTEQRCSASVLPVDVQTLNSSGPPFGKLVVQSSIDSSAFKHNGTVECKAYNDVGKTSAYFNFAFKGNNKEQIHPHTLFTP
# protocol summary: BLI Octet, set-up as in Example 2
# Experimental: In the main experiment kinetic assays were performed by first capturing IgG using anti-human Fc biosensors. The mAb capture biosensors were then submerged in wells containing different concentrations of antigen (association stage) followed by a dissociation step in running buffer. […] Dissociation rate constants (Kd) were calculated using the ForteBio Data Analysis software. […]
pKd: −log10 of the molar value.
value type: pKd

binder	value type	reported measurement
Bietschhorn (antibody, V domains shown, IgG; also called VH1/VL1.29) VH: QVQLVQSGAEVKKPGASVKVSCKASGYTFTSYNMHWVRQAPGQGLEWMGVIYSGNGDTSYNQKFKGRVTMTTDTSTSTAYMELRSLTSDDTAVYYCARERDTRFGNWGQGTLVTVSA VL: EIVLTQSPSSLSASVGDRVTITCRASESVDIYGESFMHWYQQKPGKAPKLLIYLASNLESGVPSRFSGSGSGTDFTLTISSLQPEDFATYYCQQNREEPYTFGQGTKLEIKR	pKd	8.96
Parrot (antibody, V domains shown, IgG; also called VH1/VL1.5) VH: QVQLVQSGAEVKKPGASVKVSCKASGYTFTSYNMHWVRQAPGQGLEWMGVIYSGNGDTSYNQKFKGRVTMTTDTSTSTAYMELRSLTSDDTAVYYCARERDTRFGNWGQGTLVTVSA VL: EIVLTQSPSSLSASVGDRVTITCRASESVDIYGKSFMHWYQQKPGKAPKLLIYLASNLESGVPSRFSGSGSGTDFTLTISSLQPEDFATYYCQQNNEDPYTFGQGTKLEIKR	pKd	8.43
Zinalrithorn (antibody, V domains shown, IgG; also called VH1/VL1.12) VH: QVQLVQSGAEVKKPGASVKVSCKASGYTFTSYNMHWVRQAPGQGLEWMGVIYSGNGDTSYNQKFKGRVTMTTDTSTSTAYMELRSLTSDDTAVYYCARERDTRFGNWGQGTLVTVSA VL: EIVLTQSPSSLSASVGDRVTITCRASESVDIYGNSFMHWYQQKPGKAPKLLIYLASNLESGVPSRFSGSGSGTDFTLTISSLQPEDFATYYCQQHNEDPYTFGQGTKLEIKR	pKd	8.89

These measurements were taken from patent US20260258124A1.
